// data source = patent US20020028938A1

# Tested on: air pouch prostaglandin biosynthesis (Cox-2)
# Measurement protocol: Carrageenan induced air pouch prostaglandin biosynthesis model (CAP)
# Type: in vivo, rat
# Study conditions: 4 h; 3 mpk, rat; read-out: CAP % Inhib. @ 3 mpk

>  <Molecule>
CC(C)(C)COc1c(-c2ccc(S(C)(=O)=O)cc2)cnn(CC(F)(F)F)c1=O [Example 261]

>  <Experimental target>
air pouch prostaglandin biosynthesis (Cox-2)

>  <inhibition in vivo at 3 mg/kg>
79%

$$$$
>  <Molecule>
CC(C)CCOc1c(-c2ccc(S(N)(=O)=O)cc2)cnn(-c2ccc(F)c(F)c2)c1=O [Example 445]

>  <Experimental target>
air pouch prostaglandin biosynthesis (Cox-2)

>  <inhibition in vivo at 3 mg/kg>
73%

$$$$
>  <Molecule>
NS(=O)(=O)c1ccc(-c2cnn(-c3ccc(F)c(F)c3)c(=O)c2Oc2ccc(F)cc2)cc1F [Example 407]

>  <Experimental target>
air pouch prostaglandin biosynthesis (Cox-2)

>  <inhibition in vivo at 3 mg/kg>
61%

$$$$
>  <Molecule>
CS(=O)(=O)c1ccc(-c2cnn(CC(F)(F)F)c(=O)c2-c2ccc(Cl)cc2)cc1 [Example 58]

>  <Experimental target>
air pouch prostaglandin biosynthesis (Cox-2)

>  <inhibition in vivo at 3 mg/kg>
67%

$$$$

---

Recorded melting point values for a group of compounds are listed next.

>  <Molecule smiles>
CC(C)CCCOc1c(-c2ccc(S(C)(=O)=O)cc2)cnn(-c2ccc(F)cc2)c1=O

>  <melting point>
123 to 125 °C

$$$$
>  <Molecule smiles>
Cc1ccc(-c2c(-c3ccc(S(C)(=O)=O)cc3)cnn(-c3ccc(F)c(F)c3)c2=O)cc1

>  <melting point>
190 to 192 °C

$$$$
>  <Molecule smiles>
CS(=O)(=O)c1ccc(-c2cnn(Cc3ccccc3)c(=O)c2-c2ccc(F)cc2)cc1

>  <melting point>
101 to 103 °C

$$$$
>  <Molecule smiles>
CS(=O)(=O)c1ccc(-c2cnn(Cc3ccccc3)c(=O)c2-c2ccc(F)c(Cl)c2)cc1

>  <melting point>
134 to 136 °C

$$$$
>  <Molecule smiles>
CC(C)Oc1c(-c2ccc(S(C)(=O)=O)cc2)cnn(-c2cccc(Br)c2)c1=O

>  <melting point>
130 to 132 °C

$$$$
>  <Molecule smiles>
CS(=O)(=O)c1ccc(-c2cnn(-c3cc(F)cc(F)c3)c(=O)c2Oc2ccc(F)cc2)cc1

>  <melting point>
209 to 211 °C

$$$$
>  <Molecule smiles>
CS(=O)(=O)c1ccc(-c2cnn(CC(F)(F)F)c(=O)c2OC2CCCC2)cc1

>  <melting point>
148 to 150 °C

$$$$

---

Recorded pIC50 values for a group of molecules are listed next.
# Experimental target: human amnionic whole cell cyclooxygenase-2 (WISH cells) (Homo sapiens)
# Construct: endogenous in cells
# Sequence (P35354 18-604): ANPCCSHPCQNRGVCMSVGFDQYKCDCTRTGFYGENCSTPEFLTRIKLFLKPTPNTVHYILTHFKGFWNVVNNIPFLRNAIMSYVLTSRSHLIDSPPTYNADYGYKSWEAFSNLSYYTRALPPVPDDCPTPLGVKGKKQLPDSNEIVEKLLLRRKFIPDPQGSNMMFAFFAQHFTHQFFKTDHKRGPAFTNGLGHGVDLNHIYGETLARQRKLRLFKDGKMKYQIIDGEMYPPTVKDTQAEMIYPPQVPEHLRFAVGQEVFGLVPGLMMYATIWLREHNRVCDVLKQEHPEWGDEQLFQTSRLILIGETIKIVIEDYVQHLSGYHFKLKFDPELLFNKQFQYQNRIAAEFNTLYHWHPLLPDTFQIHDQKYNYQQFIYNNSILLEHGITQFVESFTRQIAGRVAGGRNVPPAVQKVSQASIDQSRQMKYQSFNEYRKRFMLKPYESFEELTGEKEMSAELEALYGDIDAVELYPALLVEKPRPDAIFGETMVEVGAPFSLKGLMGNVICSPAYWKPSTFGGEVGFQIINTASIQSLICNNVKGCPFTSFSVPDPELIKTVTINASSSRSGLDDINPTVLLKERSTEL
# Measurement protocol: IL-1β induced PGE2 production in WISH cells
# Study conditions: read-out: Wish IC50 (parenthetical value)
pIC50: −log10 of the molar value.

>  <Molecule smiles>
CC(C)=CCCOc1c(-c2ccc(S(N)(=O)=O)cc2)cnn(-c2ccc(F)c(F)c2)c1=O

>  <pIC50>
7.28

$$$$
>  <Molecule smiles>
CS(=O)(=O)c1ccc(-c2cnn(C3CCCCC3)c(=O)c2-c2ccc(F)cc2)cc1

>  <pIC50>
7.60

$$$$
>  <Molecule smiles>
CC(C)(C)COc1c(-c2ccc(S(N)(=O)=O)cc2)cnn(-c2ccc(F)c(F)c2)c1=O

>  <pIC50>
7.59

$$$$
>  <Molecule smiles>
NS(=O)(=O)c1ccc(-c2cnn(Cc3cc(F)c(F)cc3F)c(=O)c2-c2ccc(F)cc2)cc1

>  <pIC50>
7.54

$$$$
>  <Molecule smiles>
CC(C)(O)COc1c(-c2ccc(S(N)(=O)=O)cc2)cnn(-c2ccc(F)cc2)c1=O

>  <pIC50>
6.97

$$$$
>  <Molecule smiles>
COc1ccc(-c2c(-c3ccc(S(C)(=O)=O)cc3)cnn(Cc3ccccc3)c2=O)cc1F

>  <pIC50>
7.30

$$$$
>  <Molecule smiles>
CC(C)(C)COc1c(-c2ccc(S(C)(=O)=O)cc2)cnn(-c2ccc(F)c(F)c2)c1=O

>  <pIC50>
7.39

$$$$
>  <Molecule smiles>
NS(=O)(=O)c1ccc(-c2cnn(CC=C(Cl)Cl)c(=O)c2-c2ccc(F)cc2)cc1

>  <pIC50>
9.00

$$$$
